METHOD: recombinant barcode read abundance after kanamycin selection (control-corrected) (log10(CPM+1)); higher = more efficient recombination; sequences stand for … in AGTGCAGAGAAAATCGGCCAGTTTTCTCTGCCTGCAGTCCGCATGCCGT…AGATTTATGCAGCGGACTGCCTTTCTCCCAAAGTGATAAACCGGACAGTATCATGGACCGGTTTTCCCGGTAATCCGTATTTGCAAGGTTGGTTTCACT; site = the 11-nt target
For each record, write down the corresponding recombinant barcode read abundance (log10).

{"columns": ["POLYMER_SEQUENCE", "RECORDED_RESULT"],
 "data": [
  ["TTCCTATCTTGGGTTCTAACCTGTTGCCT (site TACCTATCTAG)", 0.221],
  ["GAGGCTCCTTGGGTTCTAACCTGTTGCCC (site GAGGCTCCTCG)", 0.174],
  ["ACCGGGACTTGGGTTCTAACCTGTTGCCT (site ACCGTGACTAG)", 0],
  ["TAGTTCACTTGGGTTCTAACCTGTTGCAT (site TAGCTCACTAT)", 0.0603],
  ["ATCCAGGCTTGGGTTCTAACCTGTTGCGG (site ATTCAGACTCC)", 0.00907]
]}

Hi team, please reply with recombinant barcode read abundance (log10) for each item in this list.
1. GAGCGTTCTTGGGTTCTAACCTGTTGCCT (site GAGCGTTCTAG)
2. TATAGAACTTGGGTTCTAACCTGTTGCCT (site TATAGAACTAG)
3. GTCTGCCCTTGGGTTCTAACCTGTTGCCT (site GACTGCCCTAG)
4. CTACTAGCTTGGGTTCTAACCTGTTGCAC (site CTACTAGCTCT)

1. 1.47
2. 0.192
3. 0.181
4. 0.433

I'd like to know its recombinant barcode read abundance (log10). The sequence in question is GCAATGACTTGGGTTCTAACCTGTTGCCT (site GTAATGACTAG) 0.292

* * *

METHOD: recombinant UMI read abundance after kanamycin selection (control-corrected) (log10(CPM+1)); higher = more efficient recombination; extreme values may be limits of the assay; sequences stand for … in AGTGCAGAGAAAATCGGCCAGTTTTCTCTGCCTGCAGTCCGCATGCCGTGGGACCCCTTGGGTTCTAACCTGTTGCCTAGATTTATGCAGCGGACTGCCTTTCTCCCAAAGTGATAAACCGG…AGGTTGGTTTCACT; site = the 11-nt donor
Classification field. Basis: recombinant UMI read abundance (log10). Definitions: bucket A: < 0.005; bucket B: ≥ 0.005 and < 1; bucket C: ≥ 1

Study these solved cases before continuing.
{"columns": ["POLYMER_SEQUENCE", "CLASS_LABEL"],
 "data": [
  ["TAAGACACATGGACCGGTTTTCCCGGTAATCCGTATTTGTT (site TAAGACACTAA)", "bucket C"],
  ["CATACACCATGGACCGGTTTTCCCGGTAATCCGTATTTGTA (site CATACACCTTA)", "bucket B"],
  ["CACTCCACATGGACCGGTTTTCCCGGTAATCCGTATTTGCC (site CACTCCTCTGG)", "bucket C"],
  ["TTACTGTCATGGACCGGTTTTCCCGGTAATCCGTATTTGGA (site TTACTGTCTTC)", "bucket C"],
  ["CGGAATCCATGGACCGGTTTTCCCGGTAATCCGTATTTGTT (site CCGAATCCTAA)", "bucket A"],
  ["AATGGGTCATGGACCGGTTTTCCCGGTAATCCGTATTTGAC (site AATGGGTCTGT)", "bucket C"]
]}

For CAAGGCCCATGGACCGGTTTTCCCGGTAATCCGTATTTGTT (site CATGGCCCTAA) , which recombinant UMI read abundance (log10) bin applies? bucket B

For ACCCGAACATGGACCGGTTTTCCCGGTAATCCGTATTTGTC (site ACGCGAACTGA) , which recombinant UMI read abundance (log10) bin applies? bucket A

For AGTAAGACATGGACCGGTTTTCCCGGTAATCCGTATTTGAG (site AGTAAGACTCT) , which recombinant UMI read abundance (log10) bin applies? bucket C

For AGGAAGACATGGACCGGTTTTCCCGGTAATCCGTATTTGGA (site AGGAAGACTTT) , which recombinant UMI read abundance (log10) bin applies? bucket C

For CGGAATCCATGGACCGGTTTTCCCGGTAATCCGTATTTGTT (site TGGAATCCTAA) , which recombinant UMI read abundance (log10) bin applies? bucket A

For ACAGTAGCATGGACCGGTTTTCCCGGTAATCCGTATTTGTA (site ACAGTAGCTTA) , which recombinant UMI read abundance (log10) bin applies? bucket C
